# measurement target: GDP-loaded KRAS G12D (Homo sapiens (Human), UniProt P01116, G12D)
# Sequence (P01116-2 other isoform, or with tags, fused parts or gaps G12D): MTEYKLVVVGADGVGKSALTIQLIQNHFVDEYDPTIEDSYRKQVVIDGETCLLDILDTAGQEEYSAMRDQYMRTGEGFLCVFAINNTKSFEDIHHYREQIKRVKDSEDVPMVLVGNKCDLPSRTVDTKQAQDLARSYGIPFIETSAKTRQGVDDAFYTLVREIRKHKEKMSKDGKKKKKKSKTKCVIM
# assay remarks: KRAS G12D (GDP) biochemical assay (TR-FRET probe displacement)
# conditions: 2 hours
The threshold is 0.3 nM. Values of IC50 beneath it are tagged Fulfilled; values meeting or exceeding it are tagged Not fulfilled.

Quick check: does C#Cc1c(F)ccc2cccc(-c3nc4c5c(nc(OC[C@@]67CCCN6C[C@H](F)C7)nc5c3F)N3C[C@H]5CC[C@H](N5)[C@H]3[C@H](CC)O4)c12 [Example 169] have IC50 under 0.3 nM?
Not fulfilled

Quick check: does Oc1cc(-c2nc3c4c(nc(OC[C@@]56CCCN5C[C@H](F)C6)nc4c2F)N2C[C@H]4CC[C@H](N4)[C@H]2CC3)c2c(F)c(Cl)ccc2c1 [Example 40] have IC50 under 0.3 nM?
Not fulfilled

Quick check: does C[C@H]1C[C@@H]2[C@@H]3CC[C@H](CN2c2nc(OC[C@@]45CCCN4C[C@H](F)C5)nc4c(F)c(-c5cc(O)cc6ccc(F)c(F)c56)nc1c24)N3 [Example 81] have IC50 under 0.3 nM?
Fulfilled

Quick check: does C#Cc1c(F)ccc2cc(O)cc(-c3nc4c5c(nc(OCC6(CN7CCC[C@@H](F)C7)CC6)nc5c3F)N3C[C@H]5CC[C@H](N5)[C@H]3CO4)c12 [Example 34] have IC50 under 0.3 nM?
Fulfilled

Quick check: does Oc1cc(-c2nc3c4c(nc(OC[C@@]56CCCN5C[C@H](F)C6)nc4c2F)N2CC4CCC(N4)[C@H]2CO3)c2ccccc2c1 (stereo in doubt) [Example 18] have IC50 under 0.3 nM?
Not fulfilled

Quick check: does C#Cc1c(F)ccc2cccc(-c3nc4c5c(nc(OC[C@@]67CCCN6C[C@H](F)C7)nc5c3F)N3C[C@H]5CC[C@H](N5)[C@H]3CC4(F)F)c12 [Example 98] have IC50 under 0.3 nM?
Not fulfilled

Quick check: does C#Cc1c(F)ccc2cccc(-c3nc4c5c(nc(OC[C@@]67CCCN6C[C@H](F)C7)nc5c3F)N3C[C@H]5CC[C@H](N5)[C@H]3[C@@H](C)C4)c12 [Example 183] have IC50 under 0.3 nM?
Not fulfilled

Quick check: does C#Cc1c(F)ccc2cc(O)cc(-c3nc4c5c(nc(OCC6(CN7CCC8(CC7)CC8(F)F)CC6)nc5c3F)N3C[C@H]5CC[C@H](N5)[C@H]3CC4)c12 [Example 185] have IC50 under 0.3 nM?
Not fulfilled

Quick check: does C#Cc1c(F)ccc2cc(N)cc(-c3nc4c5c(nc(OC[C@@]67CCCN6C[C@H](F)C7)nc5c3F)N3C[C@H]5CC[C@H](N5)[C@@H]3[C@@H](C)C4)c12 [Example 196] have IC50 under 0.3 nM?
Fulfilled

Quick check: does C#Cc1c(F)ccc2cc(O)cc(-c3nc4c5c(nc(OC[C@@]67CCCN6C[C@@]6(CC6(F)F)C7)nc5c3F)N3C[C@H]5CC[C@H](N5)[C@H]3CC4)c12 [Example 122] have IC50 under 0.3 nM?
Fulfilled

Quick check: does C#Cc1c(F)ccc2cccc(-c3nc4c5c(nc(OC[C@@]67CCCN6[C@H](COc6cnc(C(F)(F)F)cn6)CC7)nc5c3F)N3C[C@H]5CC[C@H](N5)[C@H]3CCC4)c12 [Example 197] have IC50 under 0.3 nM?
Fulfilled

Quick check: does C#Cc1c(F)ccc2cccc(-c3nc4c5c(nc(OCC67CCCN6C[C@H](OC(F)(F)F)C7)nc5c3F)N3C[C@H]5CC[C@H](N5)[C@H]3CC4)c12 (stereo partly drawn) [Example 137] have IC50 under 0.3 nM?
Not fulfilled

Quick check: does C#Cc1c(F)ccc2cc(O)cc(-c3nc4c5c(nc(OCC6(CN7CC[C@@H](C(F)(F)F)C7)CC6)nc5c3F)N3C[C@H]5CC[C@H](N5)[C@H]3CO4)c12 [Example 43] have IC50 under 0.3 nM?
Not fulfilled

Quick check: does C#Cc1c(F)ccc2cc(O)cc(-c3nc4c5c(nc(OC[C@@]67CCCN6C[C@H](F)C7)nc5c3F)N3C[C@H]5CC[C@H](N5)[C@H]3CO4)c12 [Example 2] have IC50 under 0.3 nM?
Fulfilled

Quick check: does C#Cc1c(F)ccc2cccc(-c3nc4c5c(nc(OC[C@@]67CCCN6C[C@H](F)C7)nc5c3F)N3C[C@H]5CC[C@H](N5)[C@@H]3[C@@H](C)[C@H]4C)c12 [Example 86] have IC50 under 0.3 nM?
Not fulfilled

Quick check: does C#Cc1c(F)ccc2cc(O)cc(-c3nc4c5c(nc(OC[C@@]67CCCN6C[C@H](F)C7)nc5c3F)N3C[C@H]5CC[C@H](N5)[C@@H]3[C@@H](C)C4)c12 [Example 64] have IC50 under 0.3 nM?
Fulfilled

Quick check: does C#Cc1c(F)ccc2cc(O)cc(-c3nc4c5c(nc(OC[C@@]67CCCN6C[C@H](F)C7)nc5c3F)N3C[C@H]5CC[C@H](N5)[C@H]3[C@@H](C(F)F)O4)c12 [Example 82] have IC50 under 0.3 nM?
Not fulfilled

Quick check: does Oc1cc(-c2nc3c4c(nc(OCC5(CN6CCC(OC(F)(F)F)CC6)CC5)nc4c2F)N2C[C@H]4CC[C@H](N4)[C@H]2CC3)c2c(OC(F)(F)F)c(F)ccc2c1 [Example 102] have IC50 under 0.3 nM?
Not fulfilled

Quick check: does C#Cc1c(F)ccc2cc(O)cc(-c3nc4c5c(nc(OC[C@@]67CCCN6C[C@H](F)C7)nc5c3F)N3C[C@H]5CC[C@H](N5)[C@@H]3[C@H](C)C4)c12 [Example 79] have IC50 under 0.3 nM?
Not fulfilled

Origin of the recorded values: patent US20230339981A1
